Experiment: TIMS collisional cross section (CCS, N2) of the lipid ion; higher = larger ion cross section
Conditions: sample type: HeLa; ionization mode: positive; one isomer drawn
Readings of TIMS collisional cross section for the listed compounds
Return type: number; implicit unit Å².

Completed entries (count: 8):
Query: I have this compound here, CCCCCCCCCCCCCC(=O)OC[C@@H](COC(=O)CCCCCCCCCCC)OC(=O)CCCCCCCCCCC [TG 12:0_12:0_14:0] (ion (formula + adduct): [C41H78O6+NH4] 1+) , and I need its recorded TIMS collisional cross section.
Reply: 283

Query: I have this compound here, CCCCCCCC/C=C\CCCCCCCC(=O)OC[C@H](COC(=O)CCCCCCC/C=C\CCCCCCCCC)OC(=O)CCCCCCC/C=C\CCCCCCCC [TG 18:1_18:1_19:1] (ion (formula + adduct): [C58H106O6+NH4] 1+) , and I need its recorded TIMS collisional cross section.
Reply: 329.1

Query: I have this compound here, CCCCCC/C=C\CCCCCCCC(=O)O[C@@H](CO)COC(=O)CCCCCCCCCCCCCCC [DG 16:0_16:1_0:0] (ion (formula + adduct): [C35H66O5+NH4] 1+) , and I need its recorded TIMS collisional cross section.
Reply: 254.9

Query: I have this compound here, CCCCC/C=C\C/C=C\C/C=C\C/C=C\CCCC(=O)O[C@H](CO/C=C\CCCCCCCCCCCCCCCC)COP(=O)(O)OCCN [PE P- 18:0@_20:4] (ion (formula + adduct): [C43H78NO7P+H] 1+) , and I need its recorded TIMS collisional cross section.
Reply: 281.6

Query: I have this compound here, CCCCCC/C=C\CCCCCCCC(=O)OC[C@H](COC(=O)CCCCCCC/C=C\CCCCCCC)OC(=O)CCCCCCCCCCCCCCCC [TG 16:1_17:0_17:1] (ion (formula + adduct): [C53H98O6+NH4] 1+) , and I need its recorded TIMS collisional cross section.
Reply: 315.7

Query: I have this compound here, CCCCCCCCCCCCCCCC(=O)O[C@H](COC(=O)CCCCCCCCCCCCCC)COP(=O)([O-])OCC[N+](C)(C)C [PC 15:0_16:0] (ion (formula + adduct): [C39H78NO8P+H] 1+) , and I need its recorded TIMS collisional cross section.
Reply: 282.1

Query: I have this compound here, CCCCCCCCCCCCCCCCCCCCCC(=O)OC[C@@H](COC(=O)CCCCCCCCCCCCCCC)OC(=O)CCCCCCCCCCCCCCCCCC [TG 16:0_19:0_22:0] (ion (formula + adduct): [C60H116O6+NH4] 1+) , and I need its recorded TIMS collisional cross section.
Reply: 341.2

Query: I have this compound here, CCCCCCCC/C=C\CCCCCCCCCCCCCC(=O)N[C@@H](COP(=O)([O-])OCC[N+](C)(C)C)[C@H](O)/C=C/CCCCCCCCCCCC [SM d17:1_24:1@] (ion (formula + adduct): [C46H91N2O6P+H] 1+) , and I need its recorded TIMS collisional cross section.
Reply: 302.1

New cases:
Query: I have this compound here, CCCCCCCCCCCCCCCC(=O)OC[C@@H](O)COP(=O)([O-])OCC[N+](C)(C)C [LPC 16:0_0:0] (ion (formula + adduct): [C24H50NO7P+H] 1+) , and I need its recorded TIMS collisional cross section.
Reply: 230.8
